The reported numbers originate from ChEMBL document CHEMBL2380247.

Tested on: ACHN
Test: Antiproliferative activity against human ACHN cells by SRB assay
Type: functional
Response field label: string, one of True (GI50 strictly below 800 nM) or False.

| QUERY_SMILES | ASSIGNED_CLASS |
| --- | --- |
| CCCCCCCCCCCCCCCC(=O)N(C)CC[N+](C)(C)C | True |
| CCCCCCCCCCCCCCCC(=O)N(C)CCC[N+](C)(C)C | True |
| CCCCCCCCCCCCCCCCCC(=O)NCC(C)(C)C[N+](C)(C)Cc1ccccc1 | False |
| C=CC[N+](C)(C)CC(C)(C)CNC(=O)CCCCCCCCCCCCCCCCC | False |

Consider the additional compound presented here.
Data request: Quick check: does CCCCCCCCCCCCCCCC(=O)N(C)CC[N+](CC)(CC)Cc1ccccc1 have GI50 under 800 nM?
Data returned: True

----------
Test system: PC-3
Test: Antiproliferative activity against human PC3 cells at 0.3 uM by SRB assay
Assay type: functional
PROPERTY: growth, % of control at 0.3 µM (%)
One number for each entry, in %.

Known growth, % of control at 0.3 µM results, listed for orientation:
| QUERY_SMILES | TEST_SYSTEM | PROPERTY | U | REPORTED_VALUE |
| --- | --- | --- | --- | --- |
| CCCCCCCCCCCCCCCCCC(=O)NCC(C)(C)C[N+](C)(C)CC | PC-3 | growth, % of control at 0.3 µM | % | 82.2 |
| C=CC[N+](C)(C)CCCN(C)C(=O)CCCCCCCCCCCCCCC | PC-3 | growth, % of control at 0.3 µM | % | 98 |
| CCCCCCCCCCCCCC(=O)N(C)CCC[N+](C)(C)Cc1ccccc1 | PC-3 | growth, % of control at 0.3 µM | % | 87.4 |

Dear colleague, could you send me growth, % of control at 0.3 µM for each of the items below? Thanks.
1. CCCCCCCCCCCCCCCC(=O)N(C)CCC[N+](C)(C)CC
2. C=CC[N+](CC)(CC)CCN(C)C(=O)CCCCCCCCCCCCC
3. CCCCCCCCCCCCCC(=O)N(C)CCC[N+](C)(C)C

Data returned:
1: 101; 2: 74.9; 3: 87.1
